Values compiled from patent US20260258115A1.

molecular target: RSV prefusion F (preF), DS-Cav1 (Respiratory syncytial virus, UniProt P03420 26-513); test: BLI, IgG on anti-human IgG sensor, 100 nM antigen
Reported Kd values for a set of binders
State the value with its unit after it.

Here are 2 binders together with their reported answers.
Binder	Kd
ADI-41600 (antibody, V domains shown, also called Ab 874; Antibody Number 874) VH: EVQLLESGGNMVQPGKSLRLSCAASGFTFSNYGMHWVRQAPGKGLEWVAVISKDGNNEHYADSVRARFTVSRDNSKNTLFLQMNSLRPEDTAVYYCAIGGLSGSYFGEYFQHWGRGTLVTVSS VL: DIQMTQSPSSMSASLGDRVTITCRASQGISTWLAWYQQKPGEAPKLLIYAAFGLQSGVPSRFSGSGSGTDFTLTINNLQPEDFATYYCQQAISFPFTFGGGTKVEIK	4.93 nM
ADI-41811 (antibody, V domains shown) VH: QVQLQQSGPRLVKPSHTLSLTCVISGDSVSSGSAAWSWIRQSPSRGLEWLGRTYYRSKWYYDYAVSVKGRIIIQPDTSKNQFSLQLNSVSPEDTAVYYCARDPDSGNYFHYYGMDVWGQGTTVTVSS VL: DIVMTQSPATLSLSPGERATLSCRASQSVDVYFAWYQQKPGQAPRLLIYDASKRASGVPARFSGSASGTDFTLTISSLEPEDFAVYYCQQRAKWPPYTFGQGTKLEIK	1.64 nM

What measured Kd goes with ADI-41803 (antibody, V domains shown, also called Ab 912; Antibody Number 912) VH: RCTLQQWGAGRVKPSETLSLTCAVYRGPFSGYYWSWIRQPPGKGLEWIGEINLGETNPGGSTHYNPSLRSRLSMSIDTSKKQFSLRVNSVTAADTAVYYCTRGPVSRIYDTSGSYSLNYYGMDVWGQGTTVTVSS VL: DIRMTQSPSSLSASVGDRVTITCRASQGIRNDLGWYQQKPGRAPERLIYPASSLQGGVPSRFIASGSGTEFTLTISNLQPEDFATYYCLQHNSYPRTFGQGTKVEIK ?
1.99 nM
